- TEST SUMMARY: Safety (body weight, tolerance) in the HPAF-II model
- Assay type: in vivo, Balb/c nude female mice
- CONDITION NOTES: Group 2, 60 mg/kg i.p. QD×5/week×2 weeks; day 7
ASSAY ENDPOINT: Body weight (g)
# value in g; strip the unit string

What value of Body weight has been recorded for this entry: O=P1(NCCCl)OCCCN1CCCl (stereo not shown) [Ifosfamide, reference compound]
23.3

---

- TEST SUMMARY: Safety (body weight, tolerance) in the HPAF-II model
- Format: in vivo, Balb/c nude female mice
- CONDITION NOTES: Group 2, 60 mg/kg i.p. QD×5/week×2 weeks; day 10
- Text: Balb/c nude female mice were subcutaneously inoculated with human-derived pancreatic cancer HPAF-II cells so as to establish a subcutaneous transplantation model of human-derived pancreatic cancer. […]
ASSAY ENDPOINT: Body weight (g)
Give the quantity in g, number only.

Please give the measured Body weight for this compound: O=P1(NCCCl)OCCCN1CCCl (stereo not shown) [Ifosfamide, reference compound]
23.1

---

- TEST SUMMARY: Safety (body weight, tolerance) in the HPAF-II model
- Format: in vivo, Balb/c nude female mice
- CONDITION NOTES: Group 3, 4 mg/kg i.v. QD×5, 2 days off, 2 weeks off, QD×5; day 22
ASSAY ENDPOINT: Body weight (g)
The response must be a number in g with no trailing unit.

GET /values?readout=Body weight&item= O=[N+]([O-])c1ccc(C(OP(=O)(N2CC2)N2CC2)C(F)(F)F)cc1Oc1ccc(-c2ccc(F)cc2)c(F)c1 (stereo not shown)
25.1

---

- TEST SUMMARY: Safety (body weight, tolerance) in the PA1222 model
- Type: in vivo
- CONDITION NOTES: Group 03, 10 mg/kg i.v. QW×3; day 21
ASSAY ENDPOINT: Body weight (g)
Record the value in g, omitting the unit from your answer.

Sample O=[N+]([O-])c1ccc(C(OP(=O)(N2CC2)N2CC2)C(F)(F)F)cc1Oc1ccc(-c2ccc(F)cc2)c(F)c1 (stereo not shown) [AST] — what was its Body weight?
24

---

- TEST SUMMARY: Safety (body weight, tolerance) in the LU11693 model
- Type: in vivo, BALB/c nude mice
- CONDITION NOTES: Group 03, 10 mg/kg tail vein QW×3; day 25
ASSAY ENDPOINT: Body weight (g)
Field format: number, assumed g, no unit text.

Name the recorded Body weight for O=[N+]([O-])c1ccc(C(OP(=O)(N2CC2)N2CC2)C(F)(F)F)cc1Oc1ccc(-c2ccc(F)cc2)c(F)c1 (stereo not shown) .
22.4

---

- TEST SUMMARY: Safety (body weight, tolerance) in the HPAF-II model
- Format: in vivo, Balb/c nude female mice
- CONDITION NOTES: Group 3, 4 mg/kg i.v. QD×5, 2 days off, 2 weeks off, QD×5; day 28
ASSAY ENDPOINT: Body weight (g)
Report only the number, with the unit g understood.

For the compound O=[N+]([O-])c1ccc(C(OP(=O)(N2CC2)N2CC2)C(F)(F)F)cc1Oc1ccc(-c2ccc(F)cc2)c(F)c1 (stereo not shown) [AST] , what Body weight is on record?
25.3

---

- TEST SUMMARY: Safety (body weight, tolerance) in the HPAF-II model
- Assay type: in vivo, Balb/c nude female mice
- CONDITION NOTES: Group 5, 1 mg/kg i.v. QD×5, 2 days off, 2 weeks off, QD×5; day 0
ASSAY ENDPOINT: Body weight (g)
Answer format: numeric, g implied, no suffix.

Find the recorded Body weight belonging to C[C@@H](OP(=O)(N1CC1)N1CC1)c1ccc([N+](=O)[O-])c(Oc2cccc(C(=O)N(C)C)c2)c1 [AST-3424] and report it.
22.8

---

- TEST SUMMARY: Safety (body weight, tolerance) in the HPAF-II model
- Format: in vivo, Balb/c nude female mice
- CONDITION NOTES: Group 5, 1 mg/kg i.v. QD×5, 2 days off, 2 weeks off, QD×5; day 4
ASSAY ENDPOINT: Body weight (g)
Hi! Could you send only the number? It should be in g, unit omitted.

I'd like to know its Body weight. The molecule in question is C[C@@H](OP(=O)(N1CC1)N1CC1)c1ccc([N+](=O)[O-])c(Oc2cccc(C(=O)N(C)C)c2)c1
22.9

---

- TEST SUMMARY: Safety (body weight, tolerance) in the HPAF-II model
- Format: in vivo, Balb/c nude female mice
- CONDITION NOTES: Group 2, 60 mg/kg i.p. QD×5/week×2 weeks; day 2
ASSAY ENDPOINT: Body weight (g)
The reply should be a number in g, with the unit left off.

Could you tell me which Body weight is on file for O=P1(NCCCl)OCCCN1CCCl (stereo not shown) [Ifosfamide, reference compound] ?
23.2

---

- TEST SUMMARY: Safety (body weight, tolerance) in the PA1222 model
- Assay type: in vivo
- CONDITION NOTES: Group 03, 10 mg/kg i.v. QW×3; day 10
ASSAY ENDPOINT: Body weight (g)
Entry rule: numbers only, all in g.

Requested field: Body weight. Item: O=[N+]([O-])c1ccc(C(OP(=O)(N2CC2)N2CC2)C(F)(F)F)cc1Oc1ccc(-c2ccc(F)cc2)c(F)c1 (stereo not shown)
23.6

---

- TEST SUMMARY: Safety (body weight, tolerance) in the HPAF-II model
- Format: in vivo, Balb/c nude female mice
- CONDITION NOTES: Group 4, 8 mg/kg i.v. QW×3; day 28
ASSAY ENDPOINT: Body weight (g)
Quick reminder: number only, in g, skip the unit.

So what does the record say about Body weight for O=[N+]([O-])c1ccc(C(OP(=O)(N2CC2)N2CC2)C(F)(F)F)cc1Oc1ccc(-c2ccc(F)cc2)c(F)c1 (stereo not shown) [AST] ?
25.6

---

- TEST SUMMARY: Safety (body weight, tolerance) in the HPAF-II model
- Assay type: in vivo, Balb/c nude female mice
- CONDITION NOTES: Group 5, 1 mg/kg i.v. QD×5, 2 days off, 2 weeks off, QD×5; day 28
ASSAY ENDPOINT: Body weight
Answer format: value, then unit.

Look up Body weight for this molecule: C[C@@H](OP(=O)(N1CC1)N1CC1)c1ccc([N+](=O)[O-])c(Oc2cccc(C(=O)N(C)C)c2)c1
24.9 g

---

- TEST SUMMARY: Safety (body weight, tolerance) in the HPAF-II model
- Format: in vivo, Balb/c nude female mice
- CONDITION NOTES: Group 2, 60 mg/kg i.p. QD×5/week×2 weeks; day 1
ASSAY ENDPOINT: Body weight (g)
The response must be a number in g with no trailing unit.

I would be grateful if you could share the reported Body weight for O=P1(NCCCl)OCCCN1CCCl (stereo not shown) [Ifosfamide, reference compound] .
23.1

---

- TEST SUMMARY: Safety (body weight, tolerance) in the HPAF-II model
- Assay type: in vivo, Balb/c nude female mice
- CONDITION NOTES: Group 5, 1 mg/kg i.v. QD×5, 2 days off, 2 weeks off, QD×5; day 10
ASSAY ENDPOINT: Body weight (g)
I only need the number, in g, no unit after it.

Item C[C@@H](OP(=O)(N1CC1)N1CC1)c1ccc([N+](=O)[O-])c(Oc2cccc(C(=O)N(C)C)c2)c1 has what recorded Body weight?
24.2

---

- TEST SUMMARY: Safety (body weight, tolerance) in the HPAF-II model
- Type: in vivo, Balb/c nude female mice
- CONDITION NOTES: Group 2, 60 mg/kg i.p. QD×5/week×2 weeks; day 3
ASSAY ENDPOINT: Body weight (g)
Reply numerically in g, unit not repeated.

Request the reported Body weight associated with O=P1(NCCCl)OCCCN1CCCl (stereo not shown) [Ifosfamide, reference compound]
23.5

---

- TEST SUMMARY: Safety (body weight, tolerance) in the HPAF-II model
- Format: in vivo, Balb/c nude female mice
- CONDITION NOTES: Group 5, 1 mg/kg i.v. QD×5, 2 days off, 2 weeks off, QD×5; day 21
- Text: Balb/c nude female mice were subcutaneously inoculated with human-derived pancreatic cancer HPAF-II cells so as to establish a subcutaneous transplantation model of human-derived pancreatic cancer. […]
ASSAY ENDPOINT: Body weight (g)
Write the number in g without appending the unit.

Entry under review: C[C@@H](OP(=O)(N1CC1)N1CC1)c1ccc([N+](=O)[O-])c(Oc2cccc(C(=O)N(C)C)c2)c1 . Reported Body weight?
24.5

---

- TEST SUMMARY: Safety (body weight, tolerance) in the PA1222 model
- Assay type: in vivo
- CONDITION NOTES: Group 03, 10 mg/kg i.v. QW×3; day 24
ASSAY ENDPOINT: Body weight (g)
The reply should contain only the number, in g.

Which Body weight value is on record for O=[N+]([O-])c1ccc(C(OP(=O)(N2CC2)N2CC2)C(F)(F)F)cc1Oc1ccc(-c2ccc(F)cc2)c(F)c1 (stereo not shown) ?
24

Source of measurements: patent US20250281514A1
